METRIC: melting point (°C)
Please reply with the bare figure in °C and do not write the unit itself.

Reference set (5 entries):
> print(dat)
                                   compound         metric  measured.value
1  C[C@@H]1c2ccccc2CCN1C(=O)c1cc(C2(C)CC2)n2nc(-c3ccc(-n4cc(C(=O)O)cn4)cc3F)cc2n1  melting point          238.58
2  CCc1cc(C(=O)N2CCc3sccc3[C@H]2C)nc2cc(-c3cccc(/C=C/C(=O)O)c3F)nn12 (single isomer, unassigned)  melting point          262.19
3  CCc1cc(C(=O)N2CCCCCN2C)nc2cc(-c3ccc(-c4ccc(C(=O)O)cn4)cc3F)nn12  melting point          268.78
4  CCc1cc(C(=O)N2CCCCCC2C)nc2cc(-c3ccc(S(=O)(=O)N(C)C)cc3F)nn12 (stereo not drawn) [Compound P1]  melting point             120
5  CCc1cc(C(=O)N2CCC3=C(CCCC3)C2C)nc2cc(-c3cccc(/C=C/C(=O)O)c3F)nn12 (racemic)  melting point          227.14

Task item: Can you share its melting point? I mean this compound: `CCc1cc(C(=O)N2CCCCC[C@H]2C)nc2cc(-c3ccc(N4C[C@@H]5CC(C(=O)O)=C[C@@H]5C4)cc3F)nn12`
Reply: 252.19

Task item: Consider the compound `CCc1cc(C(=O)N2CCCCC[C@H]2C)nc2cc(-c3ccc(-n4ccc(C(=O)O)n4)cc3F)nn12` and give its measured melting point.
Reply: 207.63

Task item: # lookup: melting point of C[C@@H]1CCCCCN1C(=O)c1cc(C2(C)CC2)n2nc(-c3ccc4cc(C(=O)O)c(=O)oc4c3F)cc2n1 (racemic)
Reply: 218.14

Task item: Recorded melting point for `C[C@@H]1c2ccccc2CCN1C(=O)c1cc(C2CC2)n2nc(-c3cccc(/C=C/C(=O)O)c3F)cc2n1` , please?
Reply: 202.04
